Below, each entry is listed with its recorded OD450.
Experimental System: T1, human Claudin18.2 (CLDN18.2), full length, on cells (human)
T1 construct: also called CLDN18.2-FL; HEK293-CLDN18.2 cells
Assay Name: cellular ELISA, hybridoma supernatant on fixed HEK293-CLDN18.2 cells
Expressed in OD, but write only the number.

| Binder | Measurement Type | Quantitative Readout |
| --- | --- | --- |
| S5H3B6 (antibody, mouse IgM, V domains shown, Hybridoma supernatant antibody; murine IgM, kappa; also called subclone S5H3B6) VH: EVKLVESGGGLVQPGGSLKLSCAASGFTFSDYGMAWVRQAPRKGPEWVAFISNLAYSIYYADTVTGRFTISRENAKNTLYLEMSSLRSEDTAMYYCARLGYGNSFAYWGQGTLVTVSA VL: DIVMTQSPSSLTVTAGEKVTMSCKSSQSLLNSGNQKNYLTWYQQKPGQPPKLLIYWASTRESGVPDRFTGSGSGTDFTLTISSVQAEDLAVYYCQNDYSYPLTFGAGTKLELK | OD450 | 1.38 |
| S6H9B8 (antibody, mouse IgG3, V domains shown, Hybridoma supernatant antibody; murine IgG3, kappa; also called subclone S6H9B8) VH: QVQLQQSGAELARPGASVKLSCKASGYTFTSYGISWVKQRTGQGLEWIGEIYPRSGNTYYNEKFKGKATLTADKSSSTAYMELRSLTSEDSAVYFCASLAWFAYWGQGTLVTVSA VL: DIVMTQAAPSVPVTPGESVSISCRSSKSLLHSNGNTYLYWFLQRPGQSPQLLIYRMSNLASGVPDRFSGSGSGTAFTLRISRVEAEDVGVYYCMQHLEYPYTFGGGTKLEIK | OD450 | 2.35 |
| C58B11E11 (antibody, mouse IgG2c, V domains shown, Hybridoma supernatant antibody; murine IgG2c, kappa; also called subclone C58B11E11) VH: EVQLQQSGPELVKPGASVKMSCKASGYTFTDYNMHWVKQSHGKSLEWIGYINPNNGGTSYNQKFKGKATLTVNKSSSTAYMELRSLTSEDSAVYYCARIYYGNSFAYWGQGTLVTVSA VL: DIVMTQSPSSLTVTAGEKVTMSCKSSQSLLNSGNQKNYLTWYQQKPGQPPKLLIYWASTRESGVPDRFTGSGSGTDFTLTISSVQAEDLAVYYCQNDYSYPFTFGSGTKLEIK | OD450 | 0.671 |

Exercise: What does the data say about its OD450? Entry: C42B12D10 (antibody, mouse IgM, V domains shown, Hybridoma supernatant antibody; murine IgM, kappa; also called subclone C42B12D10) VH: QVQLQQSGAELVKPGASVKMSCKASGYTFTTYPIEWMKQNHGKSLEWIGNFHPYNDDTKYNEKFKGKATLTVEKSSSTVYLELSRLTSDDSAVYYCARRGYGSSYAMDYWGQGTSVTVSS VL: DIVMTQSPSSLSVSAGEKVTMSCKSSQSLLNSGNQKNYLAWYQQKPGQPPKLLIYGASTRESGVPDRFTGSGSGTDFTLTISSVQAEDLAVYYCQNDHSYPYTFGGGTKLEIK
Solution: 0.76
